Taken from PubChem BioAssay (NCI).

Provide the recorded growth for the entries that follow.
- System: UO-31 renal
- Experimental Protocol: NCI-60 one-dose screen, 48 h (100 = growth as untreated, 0 = no growth, -100 = all killed)
- Condition Description: 10 µM unless noted
About 83,000 compounds went through this panel and 20% of them were active in at least one assay; those are over-represented in the sample as a whole.
Quick reminder: number only, in %, skip the unit.

**Query** Write down the reported growth of CCOC(=O)c1c(Nc2ccccc2)nn2c(-c3ccc(OC)cc3)ccnc12 , test system: UO-31 renal.
**Result** 85.7

**Query** Test system UO-31 renal; read-out growth; what value for COc1ccc(COc2ccc(/C=C3\C(=O)Nc4ccccc43)cc2OC)cc1 ?
**Result** 80.4

**Query** Please state recorded growth (tested on UO-31 renal) of COc1ccc(/C=N/NC(=O)c2cn(C3CC3)c3c(OC)c(N4CC5CCCNC5C4)c(F)cc3c2=O)cc1 (centres undefined)
**Result** 62.4

**Query** Reported growth for UO-31 renal, given COc1ccc([C@@H]2[C@@H](O)C(=O)N2c2cc(OC)c(OC)c(OC)c2)cc1F ?
**Result** 30.1

**Query** # value lookup — system UO-31 renal, readout growth, item Clc1cccc(/C=N/Nc2nc(N/N=C/c3cccc(Cl)c3Cl)nc(N3CCCCC3)n2)c1Cl
**Result** 93.2

**Query** Record ClC(Cl)c1nc(-c2ccco2)n2nc(-c3ccccc3)cc2n1 : what is its growth with UO-31 renal?
**Result** 35.3

**Query** Fill in the recorded growth for this compound, with UO-31 renal as test system: CCn1c(SCC(=O)Nc2cccc(C(=O)/C=C/c3cc(OC)c(OC)c(OC)c3)c2)nc2ccccc2c1=O
**Result** 37.5

**Query** Record CN1CCN(c2ccc(/C=N/n3cnc4oc(-c5ccccc5)cc4c3=N)cc2)CC1 : what is its growth with UO-31 renal?
**Result** 63.7

**Query** Any idea what growth came out for CCO/C=N/C1=C(C#N)C(c2ccc(OC)cc2)c2sc3c(CC)cccc3c2O1 (centres undefined) on UO-31 renal?
**Result** 48.1

**Query** Recorded growth for O=S(=O)(Nc1ccc2c(c1)OCO2)c1ccc(-c2cnc(C3CC3)o2)cc1 with UO-31 renal, please?
**Result** 45.5

**Query** Test system UO-31 renal; read-out growth; what value for N#Cc1cccc(/C(N)=N/C(N)=N/c2nc3ccccc3s2)c1 ?
**Result** 44.2

**Query** Please state recorded growth (tested on UO-31 renal) of O=C1[C@@H]2Cc3c([nH]c4ccccc34)[C@H](c3c(Cl)cccc3Cl)N2C(=O)CN1C1CCN(CC2CCCCC2)CC1
**Result** 69.7

**Query** So what growth did Cc1cc(S(=O)(=O)N(C)C)cc(NCC(=O)NC(=O)NCC(C)C)c1C get with UO-31 renal?
**Result** 57.1

**Query** I'm curious: which growth was measured for Cn1ccnc1C(=O)/C=C/c1ccc(CNC(=O)c2ccc(S(F)(F)(F)(F)F)cc2)cc1 tested on UO-31 renal?
**Result** 34.7

**Query** API: value(readout= growth, system= UO-31 renal, query= Cn1ccnc1C(=O)/C=C/c1ccc(CNC(=O)c2c(F)c(F)c(F)c(F)c2F)cc1 )
**Result** 79.7

**Query** Quick check: growth on UO-31 renal, item Cc1nn(-c2ccccc2)c2ncnc(N/N=C/c3ccccc3)c12 ?
**Result** 75.3

**Query** For UO-31 renal, provide growth of NC(N)=Nc1ccc(Oc2cccc(NC(N)=Nc3ccc(Br)cc3)c2)cn1 please.
**Result** 85

**Query** API: value(readout=growth, system=UO-31 renal) for record Cc1ccc2c(c1)C13C(=C2Br)CCCN1C(=O)c1ccccc13 (centres undefined)
**Result** 76.5

**Query** Find the measured growth: item C=C(C=O)[C@@H]1CC[C@]2(CO)CC[C@]3(C)[C@H](CC[C@@H]4[C@@]5(C)CCCNC(C)(C)[C@@H]5CC[C@]43C)[C@@H]12 , target or system UO-31 renal.
**Result** 78.3

----------
- System: HCC-2998 colon
- Experimental Protocol: NCI-60 one-dose screen, 48 h (100 = growth as untreated, 0 = no growth, -100 = all killed)
- Condition Description: 10 µM unless noted
The panel holds about 83,000 compounds, 20% with a hit somewhere; the sample as a whole holds those more often.
Can you tell me growth for the items I'm about to list?
Give a bare numeral; the unit % is implied.

**Query** GET /values?readout=growth&item= N/C(=N\C(N)=N\c1nc2ccccc2s1)c1ccc2ccccc2c1
**Result** 116

**Query** Return reported growth; argument: COc1c(N2CC3CCCNC3C2)c(F)cc2c(=O)c(C(=O)N/N=C/c3c[nH]c4ccccc34)cn(C3CC3)c12 (stereo not drawn)
**Result** 119

**Query** Can you look up the measured growth of CCO/C=N/C1=C(C#N)C(c2ccc(Cl)cc2)c2sc3c(C)cccc3c2O1 (stereo not drawn) for me?
**Result** 9.57

----------
Provide the reported growth of each item.
- Tested on: IGROV1 ovarian
- Experimental Protocol: NCI-60 one-dose screen, 48 h (100 = growth as untreated, 0 = no growth, -100 = all killed)
- Condition Description: 10 µM unless noted
The panel holds about 83,000 compounds, 20% with a hit somewhere; the sample as a whole holds those more often.
Give a bare numeral; the unit % is implied.

**Query** Report growth for Cn1cc(-c2nc(N)nnc2-c2c[nH]c3ccccc23)c2cc(Br)ccc21 please.
**Result** 30.5

**Query** Field request: growth | item: Cc1cc(C)n(C(=O)c2sc(=S)n(-c3ccccc3)c2N=Nc2c(N)n[nH]c2N)n1
**Result** 99.8

**Query** Return reported growth; argument: C=CCn1c(SCC(=O)Nc2ccc(C(=O)/C=C/c3ccc(Cl)cc3)cc2)nnc1-c1c[nH]c2ccccc12
**Result** 58.1

**Query** Given N/C(=N\C(N)=N\c1nc2ccccc2s1)c1ccc(C(F)(F)F)cc1 , state its recorded growth.
**Result** 80.5

**Query** For the molecule Nc1nc(-c2cccc([N+](=O)[O-])c2)c(N=Nc2ccc([N+](=O)[O-])cc2Cl)s1 , what growth is on record?
**Result** 30.6

----------
- System: HS 578T breast
- Experimental Protocol: NCI-60 one-dose screen, 48 h
- Condition Description: 10 µM unless noted
Compounds without any hit were thinned out: in the full panel of roughly 83,000, 20% have a hit. Activity calls are given as the source filed them. Rule for the calls: active = growth percent below 10; inactive = the rest.
Can you answer with just one of these options? 1 (yes) (active), 0 (no) (inactive)

**Query** Assay outcome for COc1c(N2CC3CCCNC3C2)c(F)cc2c(=O)c(C(=O)N/N=C/c3ccc(Br)cc3)cn(C3CC3)c12 (stereo not drawn) : what was it?
**Result** 0 (no)

**Query** Per the records of this test, what outcome belongs to Cc1ccc(-c2nnc(SCc3ccc(O)c4ncccc34)n2-c2ccccc2)cc1 ?
**Result** 1 (yes)

**Query** Give the logged outcome of this assay for the following compound: O=C(CSc1nnc(-c2ccc(Cl)cc2)n1-c1ccccc1)Nc1cccc(Cl)c1
**Result** 0 (no)

**Query** Tell me the assay call for C=C(C)[C@@H]1CC[C@]2(COP(=O)(OCC)OCC)CC[C@]3(C)[C@H](CC[C@@H]4[C@@]5(C)CCCNC(C)(C)[C@@H]5CC[C@]43C)[C@@H]12 please.
**Result** 0 (no)

**Query** Please share the test call associated with C=CCn1c(SCC(=O)Nc2ccc(C(=O)/C=C/c3ccc(C)cc3)cc2)nnc1-c1c[nH]c2ccccc12 .
**Result** 0 (no)

**Query** Answer briefly: the call reported for Cc1nn(-c2ccccc2)c2ncnc(N/N=C/c3ccccc3)c12 in this assay.
**Result** 0 (no)

**Query** Assay result, entry COc1ccc(/C=C/C(=O)c2cc(S(N)(=O)=O)c(OC)cc2OC)cc1 — outcome?
**Result** 0 (no)

**Query** Record request — test call for CC[C@H](CO)Nc1ccc2ncc(C#Cc3cncc(C(=O)Nc4ccc(CN5CCN(C)CC5)c(C(F)(F)F)c4)c3)n2n1
**Result** 1 (yes)

----------
- Test system: CCRF-CEM leukemia
- Experimental Protocol: NCI-60 one-dose screen, 48 h (100 = growth as untreated, 0 = no growth, -100 = all killed)
- Condition Description: 10 µM unless noted
Compounds without any hit were thinned out: in the full panel of roughly 83,000, 20% have a hit. Active and inactive are the calls of the source. The calls were made as follows: active = growth percent below 10; inactive = the rest.
Property Label: growth

**Query** I would be grateful if you could share the reported growth for COc1ccc(-c2nn(-c3ccc(S(C)(=O)=O)cc3)cc2/C=N/O)cc1 .
**Result** 99.6% (inactive)

**Query** Which growth value is on record for CCCn1cnc2c(c1=N)C(c1ccc(F)cc1)c1sc3c(C)cccc3c1O2 (stereo not given) ?
**Result** -3.84% (active)

**Query** GET /values?readout=growth&item= C#CCOC(=O)[C@@H]1CCCN1CC#C
**Result** 81.9% (inactive)

**Query** What does the data say about its growth? Entry: CNc1ncc2cc(-c3ccc(-c4ncccc4F)cc3Cl)c(=O)n(CC3OCC(N)CO3)c2n1 (stereo not given)
**Result** 78.1% (inactive)

**Query** Quick one: growth of Cn1ccnc1C(=O)/C=C/c1ccc(NC(=O)c2ccc(F)cc2)cc1 ?
**Result** 7.06% (active)
